assayed target: BRD4-1 (Homo sapiens)
Construct: made in house; host or cells: Escherichia coli
assay method text: Biochemical HTRF (TR-FRET) assay: BRD4-1 binding to acetylated histone H4 peptide
setup conditions: 200 nM H4 peptide, 60 nM BRD4-1, 60 min at 25 °C; geometric mean; read-out: IC50 HTBS BRD4-1 HTRF
# IC50 listing for each entry below
readout kind: IC50 (nM)

compound: Cc1noc(C)c1-c1cc(-c2cccnc2-c2ccccc2)c2[nH]c(=O)[nH]c2c1 [Example 4]
readout kind: IC50
readout units: nM
test value: 119

compound: Cc1cnn(C)c1-c1cc(-c2c(C)noc2C)cc2[nH]c(=O)n(C)c12 [Example 8]
readout kind: IC50
readout units: nM
test value: 511

compound: Cc1noc(C)c1-c1cc(S(=O)(=O)NC2CCCC2)c2[nH]c(=O)[nH]c2c1 [Example 1]
readout kind: IC50
readout units: nM
test value: 1410

compound: Cc1noc(C)c1-c1cc(-c2cccnc2-c2ccccc2)c2oc(=O)[nH]c2c1 [Example 12]
readout kind: IC50
readout units: nM
test value: 316
